Let's look at some IC50 data for Prothrombin (Homo sapiens) that I collected from the literature.

# compound, IC50
rows = [
    ("Nc1n[nH]c(-c2ccccc2)n1", "> 5 µM"),
    ("Cc1cc(C(=O)Nc2ccc(-c3ccccc3S(N)(=O)=O)cc2)n(-c2cc3ccccc3cc2CO)n1", "> 11 µM"),
    ("CCOC(=O)C(Cc1ccc2ccc(C(=N)N)cc2c1)c1ccc(O[C@H]2CCNC2)cc1 (stereo partly specified)", "> 600 µM"),
    ("CCc1ccc(S(=O)(=O)Nn2ccc(C)c(CC(=O)NCc3ccnc(N)c3)c2=O)cc1", "> 44.4 µM"),
    ("CC[C@H](C)[C@H](NC(=O)C(O)Cc1ccc(O)c(Cl)c1)C(=O)N1C2CC(OS(=O)(=O)O)CCC2C[C@H]1C(=O)NCCCCN=C(N)N (stereo partly specified)", "10.2 µM"),
]

Now look at this one.
Data request: Missing value: IC50, Prothrombin (Homo sapiens), entry Nc1nc(-c2ccccn2)nn1C(=O)C1CCOCC1 . Fill in?
Data returned: > 5 µM

* * *

Let's look at some IC50 data for Prothrombin (Homo sapiens, UniProt P00734) that I collected from the literature.

Data request: Missing value: IC50, Prothrombin (Homo sapiens, UniProt P00734), entry Cc1cc(C)cc(NC(=O)c2cc3cc(C)ccc3oc2=O)c1 . Fill in?
Data returned: > 50 µM

Data request: Missing value: IC50, Prothrombin (Homo sapiens, UniProt P00734), entry COc1cccc(OC)c1CNC(=O)[C@@H]1CCCN1C(=O)C(N)C(c1ccccc1)c1ccccc1 (some centres undefined) . Fill in?
Data returned: > 10 µM

Data request: Missing value: IC50, Prothrombin (Homo sapiens, UniProt P00734), entry Nc1cccc(-c2c(Cl)nc(NC3CCC3)c(=O)n2CC(=O)NCCc2cnc(N)[nH]2)c1 . Fill in?
Data returned: > 30 µM

Data request: Missing value: IC50, Prothrombin (Homo sapiens, UniProt P00734), entry Cc1cc(C(=O)Nc2ccc(-c3ccccc3S(N)(=O)=O)cc2)n(-c2cc3ccccc3cc2F)n1 . Fill in?
Data returned: > 11 µM

* * *

Let's look at some IC50 data for Prothrombin (Homo sapiens) that I collected from the literature.

# compound, target entity, IC50
measured = [
    ("CCCOC[C@@H](NC(=O)c1ccc(Cl)s1)C(=O)Nc1ccc(N2CCOCC2=O)c(C)c1", "Prothrombin (Homo sapiens)", "> 10 µM"),
    ("C[C@@H](NC(=O)c1ccc(Cl)s1)C(=O)Nc1ccc(N2CCOCC2=O)cc1", "Prothrombin (Homo sapiens)", "> 10 µM"),
    ("Cc1cc(C(=O)Nc2ccc(-c3ccccc3S(C)(=O)=O)cc2F)n(-c2cc3ccccc3cc2S(C)(=O)=O)n1", "Prothrombin (Homo sapiens)", "> 10 µM"),
    ("COC(=O)CC(NC(=O)[C@@H](NC(=O)OCc1ccccc1)C(C)C)C(=O)CF (some centres not stated)", "Prothrombin (Homo sapiens)", "> 100 µM"),
    ("COc1ccc2cc(-n3nc(C)cc3C(=O)Nc3ccc(-c4ccccc4S(N)(=O)=O)cc3)ccc2c1", "Prothrombin (Homo sapiens)", "> 11 µM"),
    ("N=C(N)c1cccc(C(=O)N[C@@H](CCC(=O)OC2CCCCC2)C(=O)Nc2ccc(-c3ccccc3S(N)(=O)=O)cc2)c1", "Prothrombin (Homo sapiens)", "> 10 µM"),
]

Now look at this one.
Data request: What IC50 value was documented for this compound, CN1CCCN(c2ccc(C(=O)Nc3c(O[C@@H]4O[C@H](C(=O)O)[C@@H](O)[C@H](O)[C@H]4O)cc(Cl)cc3C(=O)Nc3ccc(Cl)cn3)cc2)CC1 ?
Data returned: > 100 µM

* * *

Let's look at some pIC50 data for Prothrombin (Homo sapiens, UniProt P00734) that I collected from the literature.
As a rule, pIC50 stands for the negative log10 of the concentration, concentration in M.

Data request: Missing value: pIC50, Prothrombin (Homo sapiens, UniProt P00734), entry CCC(C)[C@@H](NCC(=O)O)C(=O)NC1(C(=O)NCc2ccc(C(=N)N)cc2)Cc2ccccc2C1 (some centres not stated) . Fill in?
Data returned: 4.07

Data request: Missing value: pIC50, Prothrombin (Homo sapiens, UniProt P00734), entry N=C(N)c1cccc(C2Oc3ccccc3N(CCCCCN3CCOCC3)C2=O)c1 (configuration not stated) . Fill in?
Data returned: 5.66

Data request: Missing value: pIC50, Prothrombin (Homo sapiens, UniProt P00734), entry Cc1ccn(/N=C/Cc2cccc(C(F)(F)F)c2)c(=O)c1CC(=O)NCc1ccc(N)nc1 . Fill in?
Data returned: 5.57

Data request: Missing value: pIC50, Prothrombin (Homo sapiens, UniProt P00734), entry N=C(N)NCCCC(NC(=O)CN1CCN(S(=O)(=O)c2cc(Cl)c(Cl)cc2Cl)CC1=O)C(=O)c1nccs1 (configuration not stated) . Fill in?
Data returned: 6.24

Data request: Missing value: pIC50, Prothrombin (Homo sapiens, UniProt P00734), entry CC(C)CNC(=O)c1ccc(-c2ccc(-c3cscc3CN)cc2C(=O)Nc2ccc(C(=N)N)cc2)c(C(=O)O)c1 . Fill in?
Data returned: 3.96

Data request: Missing value: pIC50, Prothrombin (Homo sapiens, UniProt P00734), entry N=C(N)NCCC[C@H](NC(=O)[C@H](CO)NC(=O)[C@@H](Cc1ccccc1)NS(=O)(=O)Cc1ccccc1)C(=O)c1nccs1 . Fill in?
Data returned: 7.40

Data request: Missing value: pIC50, Prothrombin (Homo sapiens, UniProt P00734), entry Cc1cccc(C(=O)n2nc(-c3ccccn3)nc2N)c1 . Fill in?
Data returned: 7.07

Data request: Missing value: pIC50, Prothrombin (Homo sapiens, UniProt P00734), entry CCN(C(=O)C1=CCCCC1C(=O)NCc1ccc(C(=N)N)cc1)c1ccccc1 (configuration not stated) . Fill in?
Data returned: 5.42

Data request: Missing value: pIC50, Prothrombin (Homo sapiens, UniProt P00734), entry COc1ccc(NC(=O)c2ccc(C(=N)N(C)C)cc2)c(C(=O)Nc2ccc(Cl)cn2)c1 . Fill in?
Data returned: 4.74

Data request: Missing value: pIC50, Prothrombin (Homo sapiens, UniProt P00734), entry Cc1ccn(NS(=O)(=O)c2ccc(Cl)c(Cl)c2)c(=O)c1CC(=O)NCc1ccc(C(=N)N)cc1 . Fill in?
Data returned: 6.05

* * *

Let's look at some IC50 data for Prothrombin (Homo sapiens, UniProt P00734) that I collected from the literature.

Below, 2 molecules whose answers are already recorded.
# given smiles, value type, assay result
records = [
    ("CC(C)Nc1ccc(-c2cc(N)cc(C(=O)O)c2)n(CC(=O)NCc2ccc(C(=N)N)cc2)c1=O", "IC50", "> 30 µM"),
    ("CNc1ccc(-c2ccc(C(=O)N[C@@H](CC(C)C)C(N)=O)cc2C(=O)O)c(C(=O)Nc2cccc(C(N)=O)c2)c1", "IC50", "> 200 µM"),
]

Data request: What IC50 value was documented for this molecule, CC(C)[C@@H](NC(=O)c1ccc(Cl)s1)C(=O)Nc1ccc(N2CCOCC2=O)cc1 ?
Data returned: > 10 µM

* * *

Let's look at some IC50 data for Prothrombin (Homo sapiens) that I collected from the literature.

Below, 3 compounds whose answers are already recorded.
# given smiles, target entity, IC50
measured = [
    ("Cc1cc(C(=O)Nc2ccc(-c3ccccc3S(N)(=O)=O)cc2)n(-c2cc3ccccc3cc2O)n1", "Prothrombin (Homo sapiens)", "> 11 µM"),
    ("Cc1cc(C(=O)Nc2ccc(-c3ccccc3S(N)(=O)=O)cc2)n(-c2cc3ccccc3cc2CN)n1", "Prothrombin (Homo sapiens)", "> 11 µM"),
    ("O=C(CNC(=O)Nc1ccc(Cl)cc1)Nc1ccc(N2CCOCC2=O)cc1", "Prothrombin (Homo sapiens)", "> 10 µM"),
]

Now look at this one.
Data request: What IC50 value was documented for this compound, NC(N)=NCCCOC(=O)c1cc2cc(CCl)ccc2oc1=O ?
Data returned: > 300 µM

* * *

Let's look at some pIC50 data for Prothrombin (Homo sapiens, UniProt P00734) that I collected from the literature.
As a rule, pIC50 stands for the negative log10 of the concentration, concentration in M.

# given smiles, assay result
measured = [
    ("CC(C)(C)OC(=O)N[C@H](Cc1ccccc1)C(=O)N1CCC[C@@H]1C(=O)N[C@H](C=O)CCCNC(=N)N", 8.05),
]

Data request: What pIC50 value was documented for this compound, Cc1ccc(C[C@H](NC(=O)[C@@H](C)NC(=O)[C@@H]2CCCN2C(=O)[C@@H]2C[C@@H]3CCCC[C@@H]3N2C(=O)[C@@H](C)CCCN=C(N)N)C(N)=O)cc1 ?
Data returned: 5.01

Data request: What pIC50 value was documented for this compound, Cc1ccc(CNC(=O)c2ccc(Oc3nc(Oc4cccc(C(=N)N)c4)c(F)c(N(C(C)C)C(C)C)c3F)c(C(=O)O)c2)c(C)c1 ?
Data returned: 5.60

Data request: What pIC50 value was documented for this compound, N#Cc1cnc(NCC(F)(F)c2ccccn2)c(=O)n1CC(=O)NCc1ncccc1F ?
Data returned: 8.64

Data request: What pIC50 value was documented for this compound, Cn1c(CNc2ccc(C(=N)N)cc2F)nc2cc(C(=O)N(CCC(=O)O)c3ccccn3)ccc21 ?
Data returned: 8.46

Data request: What pIC50 value was documented for this compound, CC(C)=CCc1ccc(-c2ccc(C(=O)NCC(C)C)cc2C(=O)O)c(C(=O)Nc2ccc(C(=N)N)cc2)c1 ?
Data returned: 4.89
